# Tested target: Serine/threonine-protein kinase PLK3 (Homo sapiens, UniProt Q9H4B4)
# Sequence (Q9H4B4 whole entry): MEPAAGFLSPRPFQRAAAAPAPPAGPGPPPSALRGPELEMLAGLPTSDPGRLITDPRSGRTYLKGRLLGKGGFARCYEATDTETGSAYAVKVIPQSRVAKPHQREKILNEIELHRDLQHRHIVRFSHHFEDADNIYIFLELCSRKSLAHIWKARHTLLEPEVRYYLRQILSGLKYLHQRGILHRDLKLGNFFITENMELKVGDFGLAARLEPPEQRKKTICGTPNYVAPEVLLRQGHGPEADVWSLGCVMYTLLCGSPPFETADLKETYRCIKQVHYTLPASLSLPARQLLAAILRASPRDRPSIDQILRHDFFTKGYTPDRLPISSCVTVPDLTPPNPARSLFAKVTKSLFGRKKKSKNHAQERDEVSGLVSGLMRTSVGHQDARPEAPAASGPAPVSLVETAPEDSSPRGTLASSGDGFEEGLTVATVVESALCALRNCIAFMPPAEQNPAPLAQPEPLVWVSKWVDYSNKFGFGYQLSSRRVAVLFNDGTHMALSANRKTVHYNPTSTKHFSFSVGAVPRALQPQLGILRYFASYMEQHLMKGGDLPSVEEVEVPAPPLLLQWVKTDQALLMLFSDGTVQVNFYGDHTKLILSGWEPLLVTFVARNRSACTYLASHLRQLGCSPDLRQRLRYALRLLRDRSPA
Value type: pIC50
// scale note: pIC50 = -log10(conc_M); give the bare number

Bench note, Serine/threonine-protein kinase PLK3 (Homo sapiens, UniProt Q9H4B4): entry `C[C@H](Nc1cc2c(-c3ccc4c(c3)OCO4)noc2cn1)c1ccccc1` , its pIC50 = 7.62

* * *

# Assay summary: cells
# Recorded conditions: Homo sapiens, HCT-116
Value type: IC50 (µM)
Quick reminder: number only, in µM, skip the unit.

1. C[C@H](Nc1cc2c(-c3cc(Cl)cc(CCCO)c3)noc2cn1)c1ccccc1 : 10.2

# IC50 (molecule: `C[C@H](Nc1cc2c(-c3ccc4c(c3)OCO4)noc2cn1)c1ccccc1` ) is 7.32

* * *

# Assay summary: cells
# Recorded conditions: Homo sapiens, HCT-116
Value type: IC50

Solved cases below.
1. C[C@H](Nc1cc2c(-c3ccccc3)noc2cn1)c1ccccc1 : > 20 µM
2. Cc1ccc(-c2noc3cnc(N[C@@H](C)c4ccccc4)cc23)cc1 : > 20 µM

Here's the next entry for you.
Lab note: `Cc1cc(C)cc(-c2noc3cnc(N[C@@H](C)c4ccccc4)cc23)c1` gave IC50 of > 20 µM

These data points were gathered from ChEMBL document CHEMBL1144226.
